Origin of the recorded values: PubChem BioAssay

- assayed.system: Dickkopf-related protein 1 (Homo sapiens)
- assay.notes: DKK1 binders on small-molecule microarrays, primary screen, biochemical, small-molecule microarray, 635 nm fluorescence scan (AID 1106);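 further: score merges emission near 667 nm with signal to noise over three replicate slides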
- particulars: DKK1 binding, higher = more signal
measured.parameter: composite z-score

compound="COc1ccc(C(O)C2C=CC3C(=O)N(Cc4ccccc4)C(=O)C3N2n2cnnc2)cc1OCc1ccccc1 (centres undefined)" measured_parameter="composite z-score" observed=-0.192
compound=COc1ccc(CCNC(=O)[C@@H]2c3ccccc3C(=O)N(Cc3ccccc3Cl)[C@H]2c2ccc(CO)cc2)cc1 measured_parameter="composite z-score" observed=0.0477
compound="CCCCN1CC=CC23O[C@@H]4C=CCCOC(=O)C4[C@H]2C(=O)N(CCCCCCO)[C@@H]3C1=O (some centres undefined)" measured_parameter="composite z-score" observed=-1.21
compound=O=C1c2ccccc2[C@](Cc2ccccc2I)(C(=O)NCCN2CCOCC2)[C@H](c2ccc(CO)cc2)N1Cc1ccccc1Cl measured_parameter="composite z-score" observed=0.419
